system.under.test: PAD3 (Homo sapiens, UniProt Q9ULW8)
Construct: made in house
protocol.notes: Inactivation kinetics, PAD3
Format: biochemical
test.context: kinact/KI relative to least inhibited isozyme (1.0)
measure: Fold PAD3 Selectivity (fold)

[
  {
    "compound.structure.string": "CCN1Cc2cccc(C(=O)N[C@@H](CCCNC(=N)CCl)c3nc4cc(OC)ccc4n3C)c2C1=O",
    "Fold PAD3 Selectivity [fold]": 9.3
  }
]

a = COc1cccc2c1nc([C@H](CCCNC(=N)CF)NC(=O)c1cccc3c1C(=O)N(C)C3)n2C
b = CCn1c([C@H](CCCNC(=N)CF)NC(=O)c2cccc3c2C(=O)NC3)nc2cc(OC)ccc21
*Q* Pick one: a or b . Which one has the lower reported Fold PAD3 Selectivity? Returns: label corresponding to the selected item.
*A* a

a = CCN1Cc2cccc(C(=O)N[C@@H](CCCNC(=N)CCl)c3nc4ccccc4[nH]3)c2C1=O
b = CCOc1cccc2c1nc([C@H](CCCNC(=N)CCl)NC(=O)c1cccc3c1C(=O)N(CC)C3)n2C
c = CC(C)n1c([C@H](CCCNC(=N)CCl)NC(=O)c2ccccc2C(=O)O)nc2ccccc21
*Q* Please rank these compounds by Fold PAD3 Selectivity in descending order. List the labels according to the requested ordering.
*A* b, c, a
(b: 5.5 fold, c: 3.8 fold, a: 1.0 fold)

###

system.under.test: PAD4 (Homo sapiens)
Construct: made in house
Sequence (Q9UM07 whole entry): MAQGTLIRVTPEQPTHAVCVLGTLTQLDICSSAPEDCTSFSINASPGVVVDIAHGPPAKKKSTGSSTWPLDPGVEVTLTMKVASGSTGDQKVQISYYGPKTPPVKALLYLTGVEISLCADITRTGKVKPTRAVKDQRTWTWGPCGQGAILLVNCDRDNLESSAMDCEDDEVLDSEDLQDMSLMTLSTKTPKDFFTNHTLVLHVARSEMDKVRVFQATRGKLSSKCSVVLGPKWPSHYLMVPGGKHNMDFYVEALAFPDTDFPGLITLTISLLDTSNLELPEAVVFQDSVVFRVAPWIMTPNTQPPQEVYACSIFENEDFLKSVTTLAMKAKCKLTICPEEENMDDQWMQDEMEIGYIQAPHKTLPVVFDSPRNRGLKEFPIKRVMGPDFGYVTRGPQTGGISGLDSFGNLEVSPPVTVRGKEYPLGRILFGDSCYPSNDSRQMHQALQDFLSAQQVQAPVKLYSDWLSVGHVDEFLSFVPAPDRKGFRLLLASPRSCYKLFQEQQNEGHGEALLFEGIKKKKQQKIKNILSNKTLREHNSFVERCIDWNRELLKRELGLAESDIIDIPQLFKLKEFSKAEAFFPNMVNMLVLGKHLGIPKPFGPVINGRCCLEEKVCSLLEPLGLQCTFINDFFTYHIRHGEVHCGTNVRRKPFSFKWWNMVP
protocol.notes: Inactivation kinetics, PAD4
Format: biochemical
test.context: kinact/KI relative to least inhibited isozyme (1.0)
measure: Fold PAD4 Selectivity (fold)

Here are 2 compounds together with their reported answers.
[
  {
    "compound.structure.string": "CCn1c([C@H](CCCNC(=N)CF)NC(=O)c2cccc3c2C(=O)NC3)nc2c(OC)cccc21",
    "unit.descriptor": "fold",
    "Fold PAD4 Selectivity": 1.0
  },
  {
    "compound.structure.string": "CCN1Cc2cccc(C(=O)N[C@@H](CCCNC(=N)CCl)c3nc4cc(OC)ccc4[nH]3)c2C1=O",
    "unit.descriptor": "fold",
    "Fold PAD4 Selectivity": 1.0
  }
]

a = Cn1c([C@H](CCCNC(=N)CCl)NC(=O)c2ccc(-c3ccccc3)cc2)nc2ccccc21
b = C#Cc1ccc(-c2ccc(C(=O)N[C@@H](CCCNC(=N)CCl)c3nc4ccccc4[nH]3)cc2)cc1
*Q* Parameter check: reported Fold PAD4 Selectivity is higher for which label, a or b ? Returns: label corresponding to the selected item.
*A* b

###

system.under.test: PAD3 (Homo sapiens, UniProt Q9ULW8)
Construct: made in house
Sequence (Q9ULW8 1-664): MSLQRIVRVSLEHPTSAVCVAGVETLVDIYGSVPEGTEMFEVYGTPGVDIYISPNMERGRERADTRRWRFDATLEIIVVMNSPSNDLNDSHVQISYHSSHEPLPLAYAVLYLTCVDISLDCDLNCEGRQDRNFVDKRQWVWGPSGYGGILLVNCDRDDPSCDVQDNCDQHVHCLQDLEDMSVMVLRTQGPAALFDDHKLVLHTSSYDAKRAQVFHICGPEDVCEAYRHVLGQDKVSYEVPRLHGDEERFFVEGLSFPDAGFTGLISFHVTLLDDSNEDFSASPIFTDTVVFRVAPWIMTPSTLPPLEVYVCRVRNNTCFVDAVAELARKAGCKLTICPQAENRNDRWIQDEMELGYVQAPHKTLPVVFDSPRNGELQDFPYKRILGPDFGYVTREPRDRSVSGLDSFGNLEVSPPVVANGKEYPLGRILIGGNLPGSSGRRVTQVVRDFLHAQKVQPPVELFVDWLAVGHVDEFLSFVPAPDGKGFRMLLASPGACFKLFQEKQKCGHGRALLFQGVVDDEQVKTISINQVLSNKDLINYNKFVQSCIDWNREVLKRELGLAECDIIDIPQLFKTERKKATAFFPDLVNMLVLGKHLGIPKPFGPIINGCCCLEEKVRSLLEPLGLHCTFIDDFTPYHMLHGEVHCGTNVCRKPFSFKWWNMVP
protocol.notes: Inactivation kinetics, PAD3
Type: biochemical
test.context: a: single kobs determined
measure: kinact/KI (M⁻¹ s⁻¹)

[
  {
    "compound.structure.string": "CCN1Cc2cccc(C(=O)N[C@@H](CCCNC(=N)CF)c3nc4cc(OC)ccc4n3CC)c2C1=O",
    "measurement": 24.7
  }
]

1 = CCN1Cc2cccc(C(=O)N[C@@H](CCCNC(=N)CF)c3nc4ccccc4n3C(C)C)c2C1=O
2 = N=C(CF)NCCC[C@H](NC(=O)c1ccccc1C(=O)O)c1nc2ccccc2[nH]1
3 = CCN1Cc2cccc(C(=O)N[C@@H](CCCNC(=N)CCl)c3nc4cc(OC)ccc4n3CC)c2C1=O
*Q* Please rank these compounds by kinact/KI in descending order. List the labels according to the requested ordering.
*A* 3, 2, 1
(3: 198 M⁻¹ s⁻¹, 2: 108 M⁻¹ s⁻¹, 1: 26.7 M⁻¹ s⁻¹)
